In this section we review reported GoB hCB1 values for a set of molecules.
# ASSAYED_TARGET: hCB1 (Homo sapiens)
# PROCEDURE_DETAILS: bioSensAll ebBRET signaling profiling, hCB1
# Type: cell-based
# Set-up: host or cells: HEK293SL cells, transient PEI transfection
# MEASUREMENT_CONTEXT: Log [Compound] (M) -8.39794; single replicate values, FigS6a
// no unit, no text: just the number

IN: Give the measured GoB hCB1 of `Cn1nc(-c2nnc(C(C)(C)Oc3ccc(Cl)cc3)o2)c2ccccc2c1=O` .
OUT: -7.35

IN: Another molecule to check: `Cn1nc(-c2nnc(C(C)(C)Oc3ccc(C(F)(F)F)cc3)o2)c2ccccc2c1=O`
OUT: -8.426

IN: Another: Cc1nn(Cc2ccc(Cl)cc2)c(C)c1C(=O)OCC1CSc2ccccc2O1 (centres unmarked)
OUT: -7.2806

IN: Would you mind doing `Cc1cc(C(=O)N2CC3(CCC3)[C@@H]2[C@@H]2CCCO2)nn1-c1cccc(C(F)(F)F)c1` as well?
OUT: 4.1437

Continuing:
IN: Look at this molecule and give its reported GoB hCB1. COc1cccc(C(NC(=O)c2cc(C)n(-c3cccc(C(F)(F)F)c3)n2)c2ccco2)c1 (centres unmarked)
OUT: 1.572

* * *

# PROCEDURE_DETAILS: Pharmacokinetics: plasma, brain, CSF
# MEASUREMENT_CONTEXT: male, CD-1, mouse, plasma, intraperitoneal, 0.2 mg/kg
PROPERTY: concentration at 15 min (ng/mL)
Please state the figure in ng/mL; there is no need to write the unit.

IN: I am curious: what concentration at 15 min value has been reported for COC(=O)[C@@](C)(NC(=O)c1cc(C)n(-c2cccc(C(F)(F)F)c2)n1)c1cccs1 [‘1350] ?
OUT: 10.8

Now look at this one.
IN: What concentration at 15 min value was documented for this compound, Cc1cc(C(=O)NC(C)(c2ccco2)c2ccco2)nn1-c1cccc(C(F)(F)F)c1 [‘4936] ?
OUT: 1.63

* * *

# ASSAYED_TARGET: hCB1 (Homo sapiens, UniProt P21554)
# Sequence (P21554 whole entry): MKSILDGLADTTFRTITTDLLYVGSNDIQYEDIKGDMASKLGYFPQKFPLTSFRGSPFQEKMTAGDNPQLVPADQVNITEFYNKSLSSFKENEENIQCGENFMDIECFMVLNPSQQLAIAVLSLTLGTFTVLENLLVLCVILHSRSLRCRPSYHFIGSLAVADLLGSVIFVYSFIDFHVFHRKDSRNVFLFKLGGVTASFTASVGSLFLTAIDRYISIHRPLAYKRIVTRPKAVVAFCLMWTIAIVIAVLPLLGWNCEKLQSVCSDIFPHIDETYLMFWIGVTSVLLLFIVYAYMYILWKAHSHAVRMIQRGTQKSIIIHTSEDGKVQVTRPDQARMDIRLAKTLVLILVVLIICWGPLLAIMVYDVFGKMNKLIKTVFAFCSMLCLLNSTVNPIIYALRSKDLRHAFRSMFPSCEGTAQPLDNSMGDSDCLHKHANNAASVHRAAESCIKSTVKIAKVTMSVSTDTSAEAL
# PROCEDURE_DETAILS: bioSensAll ebBRET signaling profiling, hCB1
# Format: cell-based
# Design: host or cells: HEK293SL cells, transient PEI transfection
# MEASUREMENT_CONTEXT: Gi1 biosensor; Log [Compound] (M) -9.15521
Label met when Gi1 hCB1 response >= 4; otherwise not met.

Example results:
IN: For this compound, is measured Gi1 hCB1 response 4 or higher? Cc1cc(C(=O)N(C)C(c2ccco2)c2ccco2)nn1-c1cccc(C(F)(F)F)c1 [‘4388]
OUT: not met

IN: How about COC(=O)[C@@H]1[C@@H]2CCC[C@@H]2CN1C(=O)c1cc(C)n(-c2cccc(C(F)(F)F)c2)n1 [‘6439] ?
OUT: not met

IN: Please do the same for Cc1cc(C(=O)N(C)C(c2ccccc2)c2ccco2)nn1-c1cccc(C(F)(F)F)c1 (centres unmarked) [‘1082] as well.
OUT: not met

Further cases:
IN: Assess whether reported Gi1 hCB1 response for Cc1cc(C(=O)N2CC3(CCC3)[C@H]2[C@@H]2CCCO2)nn1-c1cccc(C(F)(F)F)c1 [‘5490] sits at 4 or higher.
OUT: not met

IN: Similarly, COC(=O)[C@](C)(NC(=O)c1cc(C)n(-c2cccc(C(F)(F)F)c2)n1)c1cccs1 [‘8690] ?
OUT: not met
